- tested target: purified, recombinant human DPIV (Homo sapiens, UniProt P27487)
- Sequence (P27487 whole entry): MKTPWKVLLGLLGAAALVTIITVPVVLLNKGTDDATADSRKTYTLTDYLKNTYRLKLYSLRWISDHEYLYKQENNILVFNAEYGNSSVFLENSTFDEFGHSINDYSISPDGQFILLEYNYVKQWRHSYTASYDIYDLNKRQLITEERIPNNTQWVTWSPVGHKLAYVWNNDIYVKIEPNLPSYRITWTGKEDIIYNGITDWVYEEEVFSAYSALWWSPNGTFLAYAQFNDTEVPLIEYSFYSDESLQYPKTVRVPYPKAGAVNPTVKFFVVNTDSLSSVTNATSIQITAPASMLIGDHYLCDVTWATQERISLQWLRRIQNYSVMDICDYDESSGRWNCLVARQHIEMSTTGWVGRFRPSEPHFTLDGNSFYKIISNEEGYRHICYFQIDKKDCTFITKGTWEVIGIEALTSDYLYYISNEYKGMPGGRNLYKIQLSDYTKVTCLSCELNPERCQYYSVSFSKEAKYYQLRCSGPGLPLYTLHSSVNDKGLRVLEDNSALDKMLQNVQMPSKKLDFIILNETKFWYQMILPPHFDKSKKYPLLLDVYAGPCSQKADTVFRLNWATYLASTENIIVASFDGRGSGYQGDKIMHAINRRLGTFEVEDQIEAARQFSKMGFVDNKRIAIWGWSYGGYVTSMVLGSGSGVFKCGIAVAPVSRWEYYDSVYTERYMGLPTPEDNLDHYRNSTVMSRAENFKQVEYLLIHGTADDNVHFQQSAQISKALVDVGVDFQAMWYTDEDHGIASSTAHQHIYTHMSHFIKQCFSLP
- assay comment: Inhibition of enzymatic activity of DPIV (fluorogenic substrate hydrolysis)
- settings: highest test item concentration 25 μM, read-out: meas. IC50 (DPIV)
- Method: The inhibition of the enzymatic activity of DPIV and related enzymes was measured by using purified, recombinant human DPIV (purified from transfected Sf9 cells, final enzyme concentration approx. 1 nM) as well as purified, recombinant DP8 and DP9 (purchased from Biomol). […] The assay was performed in white microtitre plates for fluorescence measurements. […] For the calculation of IC50 values, at least 16 log 2-dilutions of each test item were analyzed. […]
property name: IC50 (nM)

molecule: NC(CCCCNC(=O)c1cccc(NC(=O)C(O)C(N)Cc2ccccc2)c1)C(=O)N1CCSC1 (stereo not shown) [Compound C21.003]
experimental result: 70

molecule: CC(=O)NC(Cc1ccccc1)C(O)C(=O)NCCCS(=O)(=O)NCC(N)Cc1cc(F)ccc1F (stereo not shown) [Compound C26.003]
experimental result: 360

molecule: NC(CNC(=O)c1cccc(NC(=O)C(O)C(N)COCc2ccccc2)c1)Cc1cc(F)ccc1F (stereo not shown) [Compound C19.031]
experimental result: 2300

molecule: CC(C)(CNC(=O)CC(N)Cc1cc(F)ccc1F)CNC(=O)C(O)C(N)Cn1cnc2cncnc21 (stereo not shown) [Compound C18.001]
experimental result: 247

molecule: NC(CCCCNC(=O)C(O)C(N)Cc1ccccc1)C(=O)N1CCSC1 (stereo not shown) [Compound C21.001]
experimental result: 110

(a) CC(C)NC(CC(=O)NCC(C)(C)CNC(=O)C(O)C(N)COCc1ccccc1)Cc1cc(F)ccc1F (stereo not shown) [Compound C19.029]
(b) NC(CNS(=O)(=O)CCCNC(=O)C(O)C(N)Cc1ccccc1)Cc1cc(F)ccc1F (stereo not shown) [Compound C26.001]
(Q) Between a and b , which one shows the larger IC50 value? Give the chosen item's label as your response.
(A) a

(a) NC(CCCCNS(=O)(=O)c1cccc(NC(=O)C(O)C(N)Cc2ccccc2)c1)C(=O)N1CCSC1 (stereo not shown) [Compound C21.006]
(b) CC(C)(C)OC(=O)NC(CNS(=O)(=O)CCCNC(=O)C(O)C(Cc1ccccc1)NC(=O)OC(C)(C)C)Cc1cc(F)ccc1F (stereo not shown) [Compound C26.002]
(c) CC(C)(CNC(=O)CC(N)Cc1cc(F)ccc1F)CNC(=O)C(O)C(N)CO (stereo not shown) [Compound C19.003]
(Q) Order the records, beginning with the lowest IC50 and ending with the highest. Hello, could you send the labels back in the order asked? Thank you.
(A) a, c, b

(1) NC(CCCCNC(=O)C(S)C(N)Cc1ccccc1)C(=O)N1CCSC1 (stereo not shown) [Compound C22.003]
(2) CC(C)(CNC(=O)CC(N)Cc1cc(F)ccc1F)CNC(=O)C(O)C(COCc1ccccc1)NC(=O)OC(C)(C)C (stereo not shown) [Compound C19.028]
(Q) Smaller IC50 value, 1 vs 2 ? Give the chosen item's label as your response.
(A) 1
(1: 32 nM, 2: 170 nM)
